testedSystem: T1, Ribonuclease A (Type II-A) from bovine pancreas (bovine, UniProt P61823 27-150)
T1 sequence (looked up): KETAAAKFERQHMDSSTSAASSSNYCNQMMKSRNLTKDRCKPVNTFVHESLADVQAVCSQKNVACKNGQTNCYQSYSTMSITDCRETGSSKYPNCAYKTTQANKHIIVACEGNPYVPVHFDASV
experimentSummary: cell-based or functional assay
propertyMeasured: IC50, cCMP assay (hydrolysis of 2',3'-cyclic CMP, absorbance at 286 nM)
Dear colleague, please return just the value in nM, with no unit written.

// IC50, cCMP assay (hydrolysis of 2',3'-cyclic CMP, absorbance at 286 nM) lookup, binder = Fv-1, expressed soluble Fv antibody of clone 5 (His-tag-TdTomato-VH) (other, Fusion protein made in E. coli from a recombinant plasmid (pJS001 to pJS003, not tied one by one); molecular weight estimated 69.2 kDa; No light chain; also called expressed Fv antibody; TdTomato-labeled Fv antibody; not shown: His-tag; TdTomato fluorescent protein) EVQLVESAAEVRRPGASVKITCKASGYSFSTYGIQWMRQAPGQRPEWLGWIHAGTGGTKYSRKFQGRITITRDTSANTVYLDLNSLTSEDTAVYYCARCGPDSDVMTDFWGQGTTVTVSS , result: 194

Record Fv-2, expressed soluble Fv antibody of clone 23 (His-tag-TdTomato-VH) (other, Fusion protein made in E. coli; 69.2 kDa; No light chain; not shown: His-tag; TdTomato fluorescent protein) EVQLVESAAEVRRPGASVKITCKASGYSFSTYGIQWMRQAPGQRPEWLGWIHAGTGGTKYSRKFQGRITITRDTSANTVYLDLNSLTSEDTAVYYCARYGPVGRVKRDDWGQGTTVTVSS . Reported IC50, cCMP assay (hydrolysis of 2',3'-cyclic CMP, absorbance at 286 nM): 236
